Data provenance is PubChem BioAssay.

# EXPERIMENT_NOTES: PSAC antagonists in infected red cells, primary screen, cell-based, P. falciparum Indochina, OD700, 1 h (AID 1154)
# CONDITION_NOTES: P. falciparum Indochina infected RBC osmotic lysis, called active from +8 up or from −8 down
Active and inactive are the calls of the source.
API: response.call in true (1) for active, false (0) for inactive

Check out these entries, answers already filled in.
CC#CCO[Si](C#CCCCCCC)(C(C)C)C(C)C    false (0)
COc1cc2c(cc1O)C(c1ccc(CN3CCCC3)cc1)N(Cc1ccc([N+](=O)[O-])o1)CC2 (stereo not drawn)    true (1)

Each compound tested received a call. Report the one for `COCC(=C=CC[C@@H](O)c1ccc(OCCO)cc1)C[C@@H](O)COCc1ccccc1` .
false (0)

I'd appreciate the recorded outcome for CCC(CC)C(O)C1C=CC2C(=O)N(C)C(=O)C2N1N1CCCCC1 (stereo not drawn) from this test.
false (0)

Which outcome was assigned to `CCCCNC(=O)c1ccc(C#C[Si](C)(C)C)c(OC(C)=O)c1` in this test?
true (1)

For C=CCC(OC(C)=O)[C@@H]1[C@@H](N(Cc2ccc(-c3ccccc3)cc2)C(=O)c2cccc3ccccc23)c2cc(OCCCO)ccc2N1C(=O)c1ccc2ccccc2c1 (stereo partly drawn) , what call appears in the results of this test?
false (0)

Hello, I am checking results. What call was entered for `O=C1O[C@H](c2ccccc2)[C@H](c2ccccc2)N2[C@H]1[C@@H](C(=O)N1CCN(c3ncccn3)CC1)[C@]1(C(=O)Nc3ccccc31)[C@H]2c1ccc(O)cc1` ?
false (0)

Just curious, what result did `CO[C@H]1O[C@H](CO)[C@@H](OC(=O)Nc2ccccc2)[C@@H]2OC(=O)[C@H](Cc3ccccc3)C/C=C/C[C@@H](Cc3ccccc3)C(=O)O[C@@H]12` get here?
true (1)

---

# EXPERIMENT_NOTES: A549 lung cancer cell viability effects, profiling panel, resazurin fluorescence, 24 h, PK04 Diversity Set (AID 1171); note: test concentration not given here
# CONDITION_NOTES: higher = more signal, called active from +8 up or from −8 down
Criterion: z-score meeting or surpassing 0.4. Met: True. Not met: False.

# count of solved cases: 6
COCCOC(=O)N1C(=O)[C@@]2(c3cc(C#CC4(O)CCCCCC4)ccc31)[C@H](c1ccc(OCCO)cc1)N1[C@H](c3ccccc3)[C@H](c3ccccc3)OC(=O)[C@H]1[C@@H]2C(N)=O    False
CC(=O)NCCCC[C@@H]1NC(=O)[C@H]2C[C@@H](C(=O)NCCCCCC[N+](C)(C)C)[C@@H](c3ccc(O)cc3)N2C1=O    True
Cc1c(NC(=O)/C(C#N)=C/c2ccc(Cl)cc2)c(=O)n(-c2ccccc2)n1C    False
CC(c1ccccc1)C(O)C1C=CC2C(=O)N(c3ccccc3)C(=O)C2N1Nc1ccc(C#N)cc1 (configuration not stated)    True
COc1ccc(NC(=O)O[C@H]2[C@H](OC(=O)Nc3ccc4c(c3)OCO4)[C@H](OC(=O)Nc3ccc4c(c3)OCO4)[C@@H](OC)O[C@@H]2CO)cc1    False
CN(C)CCCC[C@@H]1NC(=O)[C@H]2C[C@@H](C(=O)O)[C@@H](c3cccc(OCCO)c3)N2C1=O    True

Next up:
Check if z-score >= 0.4 (inclusive). Item: `[N-]=[N+]=NCc1ccccc1C[C@]1(C(=O)NCc2ccccc2)N=C(c2ccc(OCCCO)cc2)O[C@H]1c1ccccc1CN=[N+]=[N-]`
False
